All values here come from ChEMBL document CHEMBL1150720.

Species: Bos taurus
Test: Inhibition of beef heart mitochondrial NADH oxidase assessed as specific activity at 0.35 mM preincubated for 15 mins relative to control
Parameters: scale not given: the % may be the effect or the level left
Outcome label depends on Activity relative to 10%: at/above gives Condition met, below gives Condition not met.

Examples with answers:
COMPOUND	ASSIGNED CATEGORY
C[C@@H]1O[C@@H](OC[C@H]2O[C@@H](Oc3c(-c4ccc(O)c(O)c4)oc4cc(O)cc(O)c4c3=O)[C@H](O)[C@@H](O)[C@@H]2O)[C@H](O)[C@H](O)[C@H]1O	Condition met
O=c1c(O)c(-c2ccc(O)c(O)c2)oc2cc(O)cc(O)c12	Condition not met
O=c1cc(-c2ccc(O)cc2)oc2cc(O)cc(O)c12	Condition met

-- ask State whether the measured Activity reaches 10%, counting equality as reaching it, for O=C1CC(c2ccccc2)Oc2ccccc21 (centres undefined)
-- reply Condition not met

-- ask State whether the measured Activity reaches 10%, counting equality as reaching it, for O=c1c(O)c(-c2ccccc2)oc2cc(O)cc(O)c12
-- reply Condition met

-- ask State whether the measured Activity reaches 10%, counting equality as reaching it, for O=c1cc(-c2ccccc2)oc2cc(O)ccc12 [7-HYDROXYFLAVONE]
-- reply Condition met

-- ask State whether the measured Activity reaches 10%, counting equality as reaching it, for O=c1cc(-c2ccccc2)oc2cccc(O)c12 [5-HYDROXYFLAVONE]
-- reply Condition met

-- ask State whether the measured Activity reaches 10%, counting equality as reaching it, for O=c1c(O)c(-c2ccc(O)cc2)oc2cc(O)cc(O)c12
-- reply Condition met

-- ask State whether the measured Activity reaches 10%, counting equality as reaching it, for O=c1c(O)c(-c2cc(O)c(O)c(O)c2)oc2cc(O)cc(O)c12
-- reply Condition met

---

Assay: Inhibition of rat liver mitochondrial ATPase assessed per mg of protein
Settings: read-out: I50
METRIC: log10 of IC50 (log10 of the value in nmol/mg)
Heads up: the numbers are on a log10 scale; they represent IC50 in nmol/mg.

                                 smiles_str  recorded_result
0  O=c1c(O)c(-c2ccc(O)cc2O)oc2cc(O)cc(O)c12             2.08

Each of the following entries comes with a recorded value; kindly state log10 of IC50 for each.
1. O=c1c(O)c(-c2ccc(O)c(O)c2)oc2cc(O)ccc12
2. O=C1C[C@@H](c2ccc(O)cc2)Oc2cc(O)cc(O)c21
3. O=c1c(O)c(-c2cc(O)c(O)c(O)c2)oc2cc(O)cc(O)c12
4. O=c1c(O)c(-c2ccc(O)c(O)c2)oc2cc(O)cc(O)c12

-- reply
1. 2.68
2. 3.26
3. 2.57
4. 2.31

---

Test: Inhibition of beef heart mitochondrial succinoxidase assessed per mg of protein
Set-up: species or system Bos taurus
Conditions: read-out: I50
Exercise: for every item that follows, state its recorded IC50.

Reference set (3 entries):
                                 smiles_str  recorded_result
0  O=c1c(O)c(-c2cc(O)c(O)c(O)c2)oc2cc(O)cc(O)c12       45 nmol/mg
1  O=c1c(O)c(-c2ccc(O)cc2O)oc2cc(O)cc(O)c12      730 nmol/mg
2   O=c1c(O)c(-c2ccc(O)c(O)c2)oc2cc(O)ccc12       45 nmol/mg

Note: attention shifts to another entry.
-- ask Any idea what IC50 was measured for O=c1c(O)c(-c2ccc(O)c(O)c2)oc2cc(O)cc(O)c12 ?
-- reply 715 nmol/mg
